target.entity: human orexin-2 receptor (Homo sapiens (Human), UniProt O43614)
Sequence (O43614 whole entry): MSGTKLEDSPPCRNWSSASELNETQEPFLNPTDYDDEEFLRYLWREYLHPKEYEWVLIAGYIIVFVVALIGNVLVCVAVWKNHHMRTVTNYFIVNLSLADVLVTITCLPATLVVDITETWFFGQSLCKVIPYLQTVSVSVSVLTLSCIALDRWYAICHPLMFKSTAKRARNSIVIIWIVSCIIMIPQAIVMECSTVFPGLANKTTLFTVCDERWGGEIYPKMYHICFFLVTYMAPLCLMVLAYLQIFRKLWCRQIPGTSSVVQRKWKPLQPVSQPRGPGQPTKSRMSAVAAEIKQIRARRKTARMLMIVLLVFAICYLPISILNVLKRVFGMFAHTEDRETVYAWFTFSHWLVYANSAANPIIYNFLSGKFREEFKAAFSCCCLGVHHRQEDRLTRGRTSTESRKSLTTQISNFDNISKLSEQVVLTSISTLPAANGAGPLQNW
measurement.notes: radioligand binding assay, orexin-2 receptor
condition.parameters: read-out: hOX2R BIND hKi

{"structure.string": "COc1c(C#N)ccnc1O[C@@H]1CC[C@@H](C)N(C(=O)c2cccc(F)c2-c2ncccn2)C1", "Ki": "1.1 nM"}

###

target.entity: rat orexin-1 receptor (Rattus norvegicus (Rat), UniProt P56718)
Sequence (P56718 whole entry): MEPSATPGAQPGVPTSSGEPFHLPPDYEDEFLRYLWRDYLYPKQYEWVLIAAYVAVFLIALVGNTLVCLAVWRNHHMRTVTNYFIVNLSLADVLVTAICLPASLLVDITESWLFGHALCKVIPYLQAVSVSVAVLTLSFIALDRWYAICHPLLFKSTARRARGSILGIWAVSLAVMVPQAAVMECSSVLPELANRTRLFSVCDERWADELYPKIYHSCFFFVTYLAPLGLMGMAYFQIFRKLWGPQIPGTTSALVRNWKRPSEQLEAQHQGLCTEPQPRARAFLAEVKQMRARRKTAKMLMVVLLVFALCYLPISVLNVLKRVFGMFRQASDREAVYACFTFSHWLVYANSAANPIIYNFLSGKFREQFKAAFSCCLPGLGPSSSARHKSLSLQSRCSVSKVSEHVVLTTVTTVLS
measurement.notes: FLIPR Ca2+ Flux Assay, orexin-1 receptor
Assay type: cell-based
condition.parameters: CHO cells expressing the rat orexin-1 receptor; agonist 70 pM Ala-6,12 human orexin-A; read-out: hOX1R FLIPR IC50
pIC50: −log10 of the molar value.
Returns 1 (yes) if the recorded pIC50 is greater than or equal to 6, and 0 (no) otherwise.

{"structure.string": "Cc1c(C#N)ccnc1O[C@@H]1CC[C@@H](C)N(C(=O)c2cc(F)ccc2-c2ccccn2)C1", "target.entity": "rat orexin-1 receptor (Rattus norvegicus (Rat), UniProt P56718)", "assigned.label": "0 (no)"}
{"structure.string": "COc1c(C#N)ccnc1O[C@@H]1CC[C@@H](C)N(C(=O)c2ccccc2C2CCC2)C1", "target.entity": "rat orexin-1 receptor (Rattus norvegicus (Rat), UniProt P56718)", "assigned.label": "0 (no)"}
{"structure.string": "COc1ccc(-c2ccccc2C(=O)N2C[C@H](Oc3nccc(C#N)c3C)CC[C@H]2C)cn1", "target.entity": "rat orexin-1 receptor (Rattus norvegicus (Rat), UniProt P56718)", "assigned.label": "1 (yes)"}
{"structure.string": "Cc1nsc(-c2ccccc2)c1C(=O)N1C[C@H](Oc2nccc(C#N)c2C)CC[C@H]1C", "target.entity": "rat orexin-1 receptor (Rattus norvegicus (Rat), UniProt P56718)", "assigned.label": "0 (no)"}
{"structure.string": "COc1ccc(C(=O)N2C[C@H](Oc3nccc(C#N)c3C)CC[C@H]2C)c(-n2nccn2)n1", "target.entity": "rat orexin-1 receptor (Rattus norvegicus (Rat), UniProt P56718)", "assigned.label": "0 (no)"}
{"structure.string": "COc1ccc(C(=O)N2C[C@H](Oc3nccc(C#N)c3C)CC[C@H]2C)c(-c2cccnc2)n1", "target.entity": "rat orexin-1 receptor (Rattus norvegicus (Rat), UniProt P56718)", "assigned.label": "0 (no)"}
{"structure.string": "Cc1ccc(C(=O)N2C[C@H](Oc3nccc(C#N)c3C)CC[C@H]2C)c(C2CC2)c1", "target.entity": "rat orexin-1 receptor (Rattus norvegicus (Rat), UniProt P56718)", "assigned.label": "0 (no)"}
{"structure.string": "COc1c(C#N)ccnc1O[C@@H]1CC[C@@H](C)N(C(=O)c2ccc(C)cc2-n2nccn2)C1", "target.entity": "rat orexin-1 receptor (Rattus norvegicus (Rat), UniProt P56718)", "assigned.label": "0 (no)"}
{"structure.string": "C=Cc1ccc(C(=O)N2C[C@H](Oc3nccc(C#N)c3C)CC[C@H]2C)c(-n2nccn2)n1", "target.entity": "rat orexin-1 receptor (Rattus norvegicus (Rat), UniProt P56718)", "assigned.label": "0 (no)"}
{"structure.string": "COc1c(C#N)ccnc1O[C@@H]1CC[C@@H](C)N(C(=O)c2ccccc2-n2ncnn2)C1", "target.entity": "rat orexin-1 receptor (Rattus norvegicus (Rat), UniProt P56718)", "assigned.label": "0 (no)"}
{"structure.string": "COc1ccc(C(=O)N2C[C@H](Oc3nccc(C#N)c3C)CC[C@H]2C)c(-c2ccccn2)n1", "target.entity": "rat orexin-1 receptor (Rattus norvegicus (Rat), UniProt P56718)", "assigned.label": "0 (no)"}
{"structure.string": "COc1c(C#N)ccnc1O[C@@H]1CC[C@@H](C)N(C(=O)c2ccccc2-c2ncccn2)C1", "target.entity": "rat orexin-1 receptor (Rattus norvegicus (Rat), UniProt P56718)", "assigned.label": "0 (no)"}
{"structure.string": "Cc1c(C#N)ccnc1O[C@@H]1CC[C@@H](C)N(C(=O)c2cnc(Cl)cc2-n2nccn2)C1", "target.entity": "rat orexin-1 receptor (Rattus norvegicus (Rat), UniProt P56718)", "assigned.label": "0 (no)"}
{"structure.string": "Cc1c(C#N)ccnc1O[C@@H]1CC[C@@H](C)N(C(=O)c2cccnc2-c2ccccc2)C1", "target.entity": "rat orexin-1 receptor (Rattus norvegicus (Rat), UniProt P56718)", "assigned.label": "0 (no)"}
{"structure.string": "Cc1cccc(C(=O)N2C[C@H](Oc3nccc(C#N)c3C)CC[C@H]2C)c1-n1nccn1", "target.entity": "rat orexin-1 receptor (Rattus norvegicus (Rat), UniProt P56718)", "assigned.label": "1 (yes)"}
{"structure.string": "C[C@@H]1CC[C@@H](Oc2nccc(C#N)c2Cl)CN1C(=O)c1ccccc1-n1nccn1", "target.entity": "rat orexin-1 receptor (Rattus norvegicus (Rat), UniProt P56718)", "assigned.label": "0 (no)"}
{"structure.string": "COc1cccc(-n2nccn2)c1C(=O)N1C[C@H](Oc2nccc(C#N)c2C)CC[C@H]1C", "target.entity": "rat orexin-1 receptor (Rattus norvegicus (Rat), UniProt P56718)", "assigned.label": "1 (yes)"}
{"structure.string": "Cc1c(C#N)ccnc1O[C@@H]1CC[C@@H](C)N(C(=O)c2cc(F)ncc2-c2cncs2)C1", "target.entity": "rat orexin-1 receptor (Rattus norvegicus (Rat), UniProt P56718)", "assigned.label": "0 (no)"}
{"structure.string": "Cc1c(C#N)ccnc1O[C@@H]1CC[C@@H](C)N(C(=O)c2ccccc2C(F)(F)F)C1", "target.entity": "rat orexin-1 receptor (Rattus norvegicus (Rat), UniProt P56718)", "assigned.label": "0 (no)"}
{"structure.string": "Cc1c(C#N)ccnc1O[C@@H]1CC[C@@H](C)N(C(=O)c2cc(C#N)ccc2-n2nccn2)C1", "target.entity": "rat orexin-1 receptor (Rattus norvegicus (Rat), UniProt P56718)", "assigned.label": "0 (no)"}
{"structure.string": "Cc1c(C#N)ccnc1O[C@@H]1CC[C@@H](C)N(C(=O)c2cc(F)ccc2-c2nccs2)C1", "target.entity": "rat orexin-1 receptor (Rattus norvegicus (Rat), UniProt P56718)", "assigned.label": "1 (yes)"}
{"structure.string": "Cc1c(C#N)ccnc1O[C@@H]1CC[C@@H](C)N(C(=O)c2ccc(Br)nc2-n2nccn2)C1", "target.entity": "rat orexin-1 receptor (Rattus norvegicus (Rat), UniProt P56718)", "assigned.label": "0 (no)"}
